// values below are IC50; system is Mu-type opioid receptor (Homo sapiens)
Sequence (P35372 whole entry): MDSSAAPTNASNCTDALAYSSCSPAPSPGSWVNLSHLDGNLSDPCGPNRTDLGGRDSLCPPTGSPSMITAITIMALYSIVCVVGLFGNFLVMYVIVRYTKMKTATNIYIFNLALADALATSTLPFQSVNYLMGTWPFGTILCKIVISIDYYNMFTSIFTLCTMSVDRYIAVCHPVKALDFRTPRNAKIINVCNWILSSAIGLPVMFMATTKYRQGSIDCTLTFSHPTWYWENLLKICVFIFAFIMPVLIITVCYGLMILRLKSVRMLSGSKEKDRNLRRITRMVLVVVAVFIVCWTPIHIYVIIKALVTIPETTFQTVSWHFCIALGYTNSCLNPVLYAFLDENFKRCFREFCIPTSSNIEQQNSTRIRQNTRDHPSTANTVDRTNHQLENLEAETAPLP

COMPOUND: C=CCN1CC[C@]23c4c5ccc(OC(=O)CCCCCCCCC(=O)Oc6ccc7c(c6)[C@@]68CCCCC6[C@@H](C7)N(CC6CCC6)CC8)c4O[C@H]2C(=O)CC[C@@]3(O)[C@H]1C5 (stereo partly drawn)
IC50 [nM]: 25
--
COMPOUND: O=C(CCCCCCCCC(=O)Oc1ccc2c3c1O[C@H]1C(=O)CC[C@@]4(O)[C@@H](C2)N(CC2CC2)CC[C@]314)Oc1ccc2c(c1)[C@@]13CCCCC1[C@@H](C2)N(CC1CCC1)CC3 (stereo partly drawn)
IC50 [nM]: 160
--
COMPOUND: O=C(CCCCCCCCC(=O)Oc1ccc2c3c1O[C@H]1[C@H](O)CC[C@@]4(O)[C@@H](C2)N(CC2CCC2)CC[C@]314)Oc1ccc2c(c1)[C@@]13CCCCC1[C@@H](C2)N(CC1CCC1)CC3 (stereo partly drawn)
IC50 [nM]: 18

----------
Measured pKi of individual entries
- STUDY SYSTEM: Kappa-type opioid receptor (Homo sapiens)
- Sequence (P41145 whole entry): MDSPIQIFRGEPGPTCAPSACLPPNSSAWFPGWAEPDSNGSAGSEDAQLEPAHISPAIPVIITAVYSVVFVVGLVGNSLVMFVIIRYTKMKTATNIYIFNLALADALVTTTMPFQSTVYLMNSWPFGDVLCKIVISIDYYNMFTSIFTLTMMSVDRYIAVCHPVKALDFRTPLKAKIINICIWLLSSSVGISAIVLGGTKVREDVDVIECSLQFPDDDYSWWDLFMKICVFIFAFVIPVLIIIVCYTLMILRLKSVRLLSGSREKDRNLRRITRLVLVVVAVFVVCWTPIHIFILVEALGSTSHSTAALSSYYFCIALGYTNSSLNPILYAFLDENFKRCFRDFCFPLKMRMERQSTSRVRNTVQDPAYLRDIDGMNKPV
pKi: −log10 of the molar value.

COMPOUND: C=CCN1CC[C@]23c4c5ccc(OC(=O)CCCCCCCCC(=O)Oc6ccc7c(c6)[C@@]68CCCCC6[C@@H](C7)N(CC6CCC6)CC8)c4O[C@H]2C(=O)CC[C@@]3(O)[C@H]1C5 (stereo partly drawn)
STUDY SYSTEM: Kappa-type opioid receptor (Homo sapiens)
pKi: 9.89
--
COMPOUND: O=C(CCCCCCCCC(=O)Oc1ccc2c3c1O[C@H]1C(=O)CC[C@@]4(O)[C@@H](C2)N(CC2CC2)CC[C@]314)Oc1ccc2c(c1)[C@@]13CCCCC1[C@@H](C2)N(CC1CCC1)CC3 (stereo partly drawn)
STUDY SYSTEM: Kappa-type opioid receptor (Homo sapiens)
pKi: 9.92
--
COMPOUND: O=C(CCCCCCCCC(=O)Oc1ccc2c3c1O[C@H]1[C@H](O)CC[C@@]4(O)[C@@H](C2)N(CC2CCC2)CC[C@]314)Oc1ccc2c(c1)[C@@]13CCCCC1[C@@H](C2)N(CC1CCC1)CC3 (stereo partly drawn)
STUDY SYSTEM: Kappa-type opioid receptor (Homo sapiens)
pKi: 9.47
